Assay: Selectivity index, ratio of IC50 for mouse L929 cells to IC50 for human A549 cells
Format: toxicity
Settings: L929 cells and A549 cells, read-out: Ratio IC50
We'd kindly ask you to apply these selectivity ratio classes: bucket 1: < 10; bucket 2: ≥ 10 and < 80; bucket 3: ≥ 80

[
  {
    "Compound": "CCn1c[n+](CC)c2c(OC)ccc(OC)c21",
    "Category": "bucket 1"
  },
  {
    "Compound": "COCCn1c[n+](CCOC)c2c1C(=O)c1ccccc1C2=O",
    "Category": "bucket 2"
  },
  {
    "Compound": "COCCn1c2c([n+](Cc3cnccn3)c1C)C(=O)c1ccccc1C2=O.[Br-] [SEPANTRONIUM BROMIDE]",
    "Category": "bucket 3"
  },
  {
    "Compound": "Cn1c2c([n+](C)c1-c1ccccc1F)C(=O)c1cc3ccccc3cc1C2=O",
    "Category": "bucket 2"
  },
  {
    "Compound": "O=C1c2ccccc2C(=O)c2c1n(-c1ccccc1)c[n+]2-c1ccccc1",
    "Category": "bucket 1"
  },
  {
    "Compound": "Cn1c[n+](C)c2c1C(=O)c1cccc([N+](=O)[O-])c1C2=O",
    "Category": "bucket 3"
  },
  {
    "Compound": "Cn1c2c([n+](C)c1-c1ccco1)C(=O)c1cc3ccccc3cc1C2=O",
    "Category": "bucket 3"
  },
  {
    "Compound": "CC1=C(C)C(=O)c2c(n(C)c[n+]2C)C1=O",
    "Category": "bucket 1"
  },
  {
    "Compound": "CCCCn1c[n+](CCCC)c2c1C(=O)c1ccccc1C2=O",
    "Category": "bucket 2"
  },
  {
    "Compound": "O=C1c2ccccc2C(=O)c2c1n(Cc1ccccc1)c[n+]2Cc1ccccc1",
    "Category": "bucket 2"
  },
  {
    "Compound": "CCn1c[n+](CC)c2ccccc21",
    "Category": "bucket 1"
  },
  {
    "Compound": "CCc1n(C)c2c([n+]1C)C(=O)c1cc3ccccc3cc1C2=O",
    "Category": "bucket 2"
  },
  {
    "Compound": "Cc1n(C)c2c([n+]1C)C(=O)c1ccccc1C2=O",
    "Category": "bucket 2"
  },
  {
    "Compound": "CC(C)n1c[n+](C(C)C)c2c1C(=O)c1ccccc1C2=O",
    "Category": "bucket 2"
  },
  {
    "Compound": "CCCn1c[n+](CCC)c2c1C(=O)c1ccccc1C2=O",
    "Category": "bucket 2"
  },
  {
    "Compound": "Cn1c[n+](C)c2c1C(=O)c1cc3ccccc3cc1C2=O.[I-]",
    "Category": "bucket 3"
  },
  {
    "Compound": "CCc1n(C)c2c([n+]1C)C(=O)c1ccccc1C2=O",
    "Category": "bucket 2"
  },
  {
    "Compound": "Cn1c2c([n+](C)c1C1CC1)C(=O)c1cc3ccccc3cc1C2=O",
    "Category": "bucket 3"
  },
  {
    "Compound": "Cc1n(C)c2c([n+]1C)C(=O)c1cc3ccccc3cc1C2=O",
    "Category": "bucket 3"
  },
  {
    "Compound": "CCn1c[n+](CC)c2c1C(=O)c1ccccc1C2=O",
    "Category": "bucket 3"
  },
  {
    "Compound": "Cn1c[n+](C)c2c(O)c3c(c(O)c21)C1C=CC3C1 (centres undefined)",
    "Category": "bucket 1"
  }
]
